Reference for the values: paper PMC9964746

# Target system: vasopressin-2 receptor (AVP2R) (Homo sapiens)
# Construct: expressed in transfected cells; host or cells: CHO-K1 (PAM format); HEK-293 (agonist format)
# Sequence (P30518 whole entry): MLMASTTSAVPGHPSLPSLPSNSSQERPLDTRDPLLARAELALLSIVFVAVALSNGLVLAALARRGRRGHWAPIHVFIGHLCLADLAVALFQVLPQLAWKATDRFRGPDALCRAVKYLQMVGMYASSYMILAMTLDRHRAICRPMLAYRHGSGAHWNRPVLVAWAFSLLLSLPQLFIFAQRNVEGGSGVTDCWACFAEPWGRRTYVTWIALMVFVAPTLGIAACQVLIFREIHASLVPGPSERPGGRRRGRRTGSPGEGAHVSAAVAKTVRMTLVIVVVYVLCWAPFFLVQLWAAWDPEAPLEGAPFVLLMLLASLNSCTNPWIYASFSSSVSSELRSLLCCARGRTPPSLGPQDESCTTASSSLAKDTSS
# Assay explanation: AVP2R cAMP HTRF accumulation assay
# Type: cell-based
# Test conditions: CHO-K1 AVP2R cells, PAM format with vasopressin; original hits: agonist and PAM data combined; average ± SD
Experimental readout: Emax (%)
Give the value in % but do not write % after it.

Study these solved cases before continuing.
CCCc1nc2oc3c(NCc4ccncc4)ncnc3c2c2c1CCCC2 [CMP-60] | 0
O=C(CSc1ncnc2c1sc1nc(N3CCOCC3)c3c(c12)CCCC3)Nc1ccc(Br)cc1 [CMP-41] | 0
CCCc1nc2oc3c(NCCCN(CC)CC)ncnc3c2c2c1CCCC2 [CMP-36] | 27
O=C(O)CSc1ncnc2c1sc1nc(N3CCOCC3)c3c(c12)CCCC3 [CMP-45] | 33
CN(C)CCNc1nnnc2c1sc1nc(N3CCCCC3)c3c(c12)CCCC3 [CMP-27] | 70
C/C(Br)=C\CSc1ncnc2c1sc1nc(N3CCOCC3)c3c(c12)CCCC3 [CMP-44] | 0
CCCCNc1ncnc2c1sc1nc(CCC)c3c(c12)CCCC3 [CMP-57] | 0
CC(C)Cc1nc2oc3c(N4CCNCC4)ncnc3c2c2c1CCCC2 [CMP-15] | 58
CCCc1nc2oc3c(N(C)CCO)ncnc3c2c2c1CCCC2 [CMP-39] | 0

Now consider a different compound.
Prompt: Recall and state the measured Emax for CCCc1nc2oc3c(NCCCN(C)C)ncnc3c2c2c1CCCC2 [CMP-28] .
Completion: 73

====

# Emax annotations
# Target system: vasopressin-2 receptor (AVP2R) (Homo sapiens)
# Construct: expressed in transfected cells; host or cells: CHO-K1 (PAM format); HEK-293 (agonist format)
# Assay explanation: AVP2R cAMP HTRF accumulation assay
# Format: cell-based
# Test conditions: CHO-K1 AVP2R cells, PAM format with vasopressin; original hits: agonist and PAM data combined; average ± SD
# Experimental: Possible off-target biological effects. […] Here, we tested them at the vasopressin-2 receptor (AVP2R), representing a class A GPCR structurally related to CCK1R, which is coupled to Gs. The activity at AVP2R was tested using AVP2R-overexpressing CHO-K1 (PAM format) or HEK-293 (agonist format) cells, stimulating the cells with vasopressin. Original hits were tested in both agonist and PAM formats. […] The plate was kept at room temperature for 30 min and read on a PHERAstar FSX microplate reader. […]
Returns: string containing the numeric result and its unit.

Prompt: Report Emax on vasopressin-2 receptor (AVP2R) (Homo sapiens) for this entry: `OCCN1CCN(c2ncnc3c2sc2nc(-c4ccccc4)c4c(c23)CCC4)CC1`
Completion: 0%

Prompt: Write down measured Emax (vasopressin-2 receptor (AVP2R) (Homo sapiens)) for this molecule. `CCN(CC)CCCNc1ncnc2c1oc1nc(CC(C)C)c3c(c12)CCC3`
Completion: 46%

Prompt: Give the observed Emax of `CCCc1nc2sc3c(NCCCN(C)C)ncnc3c2c2c1CCCC2` for vasopressin-2 receptor (AVP2R) (Homo sapiens).
Completion: 40%

Prompt: Print vasopressin-2 receptor (AVP2R) (Homo sapiens) Emax for `NCCNc1ncnc2c1sc1nc(N3CCCCC3)c3c(c12)CCCC3` .
Completion: 52%
